Please provide measured TRAIL fold change cf wt for the entries that follow.
MEASURED ON: T1, TRAIL (human, UniProt P50591 114-281)
T1 construct: also called TNF-related apoptosis inducing ligand; recombinant human TRAIL (R&D Systems)
PROTOCOL NOTES: ELISA on coated TRAIL, Fc-linked dimers; EC50 ratio to OPG(22-194).Fc wt; reduction in binding (higher EC50)
One number for each entry, in fold.

{"columns": ["BINDER", "VALUE KIND", "ENDPOINT RESULT"],
 "data": [
  ["OVP I115T, K51R, R111H (Fc fusion, Tested as C-terminal Fc-linked dimer with FLAG tag, from HEK 293 EBNA cells; signal peptide 1-21 processed; not shown: human Fc domain of vector pAPEX-3.Fc; C-terminal FLAG tag) ETFPPKYLHYDEETSHQLLCDKCPPGTYLRQHCTAKWKTVCAPCPDHYYTDSWHTSDECLYCSPVCKELQYVKQECNRTHNRVCECKEGHYLETEFCLKHRSCPPGFGVVQAGTPERNTVCKRCPDGFFSNETSSKAPCRKHTNCSVFGLLLTQKGNATHDNICSGNSESTQK", "TRAIL fold change cf wt", 7.5],
  ["OVP I115M, F128T (Fc fusion, Tested as C-terminal Fc-linked dimer with FLAG tag, from HEK 293 EBNA cells; signal peptide 1-21 processed; also called I115M plus: F128T; not shown: human Fc domain of vector pAPEX-3.Fc; C-terminal FLAG tag) ETFPPKYLHYDEETSHQLLCDKCPPGTYLKQHCTAKWKTVCAPCPDHYYTDSWHTSDECLYCSPVCKELQYVKQECNRTHNRVCECKEGRYLEMEFCLKHRSCPPGTGVVQAGTPERNTVCKRCPDGFFSNETSSKAPCRKHTNCSVFGLLLTQKGNATHDNICSGNSESTQK", "TRAIL fold change cf wt", 7],
  ["OVP I115M, R122Q (Fc fusion, Tested as C-terminal Fc-linked dimer with FLAG tag, from HEK 293 EBNA cells; signal peptide 1-21 processed; also called I115M plus: R122Q; not shown: human Fc domain of vector pAPEX-3.Fc; C-terminal FLAG tag) ETFPPKYLHYDEETSHQLLCDKCPPGTYLKQHCTAKWKTVCAPCPDHYYTDSWHTSDECLYCSPVCKELQYVKQECNRTHNRVCECKEGRYLEMEFCLKHQSCPPGFGVVQAGTPERNTVCKRCPDGFFSNETSSKAPCRKHTNCSVFGLLLTQKGNATHDNICSGNSESTQK", "TRAIL fold change cf wt", 3],
  ["OVP I115Y (Fc fusion, Tested as C-terminal Fc-linked dimer with FLAG tag, from HEK 293 EBNA cells; signal peptide 1-21 processed; not shown: human Fc domain of vector pAPEX-3.Fc; C-terminal FLAG tag) ETFPPKYLHYDEETSHQLLCDKCPPGTYLKQHCTAKWKTVCAPCPDHYYTDSWHTSDECLYCSPVCKELQYVKQECNRTHNRVCECKEGRYLEYEFCLKHRSCPPGFGVVQAGTPERNTVCKRCPDGFFSNETSSKAPCRKHTNCSVFGLLLTQKGNATHDNICSGNSESTQK", "TRAIL fold change cf wt", 3]
]}

# evaluate next
Exercise: Recall and state the measured TRAIL fold change cf wt for OVP I115M, R122G (Fc fusion, Tested as C-terminal Fc-linked dimer with FLAG tag, from HEK 293 EBNA cells; signal peptide 1-21 processed; also called I115M plus: R122G; not shown: human Fc domain of vector pAPEX-3.Fc; C-terminal FLAG tag) ETFPPKYLHYDEETSHQLLCDKCPPGTYLKQHCTAKWKTVCAPCPDHYYTDSWHTSDECLYCSPVCKELQYVKQECNRTHNRVCECKEGRYLEMEFCLKHGSCPPGFGVVQAGTPERNTVCKRCPDGFFSNETSSKAPCRKHTNCSVFGLLLTQKGNATHDNICSGNSESTQK .
Key: 12.5
